Listed next: entries and their corresponding viability, T/C.
Tested on: KRAS-mutant PDC complex spheroid viability;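 note: viability read after seven days of compound exposure; 100% = DMSO vehicle-treated spheroids so lower means less viable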
TEST_METHOD_NOTES: Anticancer human tumor 186277-243-T-J2-PDC patient-derived colon adenocarcinoma cell line growth inhibition [KRAS2]
EXPERIMENTAL_SETUP: second compound 0.316 µM; first compound 0.001 µM; hits give low values
Provide only the numeric value, understood in %.

Study these solved cases before continuing.
>>> assay_value("CC(C)n1nc(-c2ccc3oc(N)nc3c2)c2c(N)ncnc21 + C=CC(=O)N1CCN(c2nc(OCC3CCCN3C)nc3c2CCN(c2cccc4cccc(C)c24)C3)CC1CC#N")
111
>>> assay_value("Cn1ncnc1[C@H]1c2n[nH]c(=O)c3cc(F)cc(c23)N[C@@H]1c1ccc(F)cc1 + CC1OCC2(CCN(c3cnc(Sc4ccnc(N)c4Cl)c(N)n3)CC2)C1N")
120
>>> assay_value("CC(C)n1nc(-c2ccc3oc(N)nc3c2)c2c(N)ncnc21 + C=CC(=O)N1CCN(c2nc(=O)n(-c3c(C)ccnc3C(C)C)c3nc(-c4c(O)cccc4F)c(F)cc23)C(C)C1")
103
>>> assay_value("Cn1ncnc1[C@H]1c2n[nH]c(=O)c3cc(F)cc(c23)N[C@@H]1c1ccc(F)cc1 + C=CC(=O)N1CCN(c2nc(OCC3CCCN3C)nc3c2CCN(c2cccc4cccc(C)c24)C3)CC1CC#N")
109
>>> assay_value("CC(=O)Nc1cccc(-n2c(=O)n(C3CC3)c(=O)c3c(Nc4ccc(I)cc4F)n(C)c(=O)c(C)c32)c1 + COc1cc2nc(C)nc(NC(C)c3cc(N)cc(C(F)(F)F)c3)c2cc1OC1CCOC1")
10.2

Lookup: Read the entry Cn1ncnc1[C@H]1c2n[nH]c(=O)c3cc(F)cc(c23)N[C@@H]1c1ccc(F)cc1 + COc1cc2nc(C)nc(NC(C)c3cc(N)cc(C(F)(F)F)c3)c2cc1OC1CCOC1 and write its reported viability, T/C.
Found: 120

Lookup: Report measured viability, T/C; entry is Cn1ncnc1[C@H]1c2n[nH]c(=O)c3cc(F)cc(c23)N[C@@H]1c1ccc(F)cc1 + CNCc1ccccc1-c1csc(C(C)Nc2nc(C)nc3cc(OC)c(OC)cc23)c1
Found: 106

Lookup: Look up and state reported viability, T/C for CC(=O)Nc1cccc(-n2c(=O)n(C3CC3)c(=O)c3c(Nc4ccc(I)cc4F)n(C)c(=O)c(C)c32)c1 + CC1OCC2(CCN(c3cnc(Sc4ccnc(N)c4Cl)c(N)n3)CC2)C1N
Found: 5.13

Lookup: Return the recorded viability, T/C value; entry: CC(=O)Nc1cccc(-n2c(=O)n(C3CC3)c(=O)c3c(Nc4ccc(I)cc4F)n(C)c(=O)c(C)c32)c1 + CNCc1ccccc1-c1csc(C(C)Nc2nc(C)nc3cc(OC)c(OC)cc23)c1
Found: 10.8

Lookup: Return viability, T/C (reported value) for this molecule: CC(C)n1nc(-c2ccc3oc(N)nc3c2)c2c(N)ncnc21 + CNCc1ccccc1-c1csc(C(C)Nc2nc(C)nc3cc(OC)c(OC)cc23)c1
Found: 80.8

Lookup: Return reported viability, T/C. Input molecule: CC(=O)Nc1cccc(-n2c(=O)n(C3CC3)c(=O)c3c(Nc4ccc(I)cc4F)n(C)c(=O)c(C)c32)c1 + C=CC(=O)N1CCN(c2nc(=O)n(-c3c(C)ccnc3C(C)C)c3nc(-c4c(O)cccc4F)c(F)cc23)C(C)C1
Found: 21.9

Lookup: Read the entry CC(C)n1nc(-c2ccc3oc(N)nc3c2)c2c(N)ncnc21 + COc1cc2nc(C)nc(NC(C)c3cc(N)cc(C(F)(F)F)c3)c2cc1OC1CCOC1 and write its reported viability, T/C.
Found: 93.6

Lookup: Identify viability, T/C associated with the molecule CC(=O)Nc1cccc(-n2c(=O)n(C3CC3)c(=O)c3c(Nc4ccc(I)cc4F)n(C)c(=O)c(C)c32)c1 + C=CC(=O)N1CCN(c2nc(OCC3CCCN3C)nc3c2CCN(c2cccc4cccc(C)c24)C3)CC1CC#N
Found: 23.8

Origin of the recorded values: PubChem BioAssay AID1963875
